Target: MMP-10h (Homo sapiens (Human), UniProt P09238)
Sequence (P09238 99-476): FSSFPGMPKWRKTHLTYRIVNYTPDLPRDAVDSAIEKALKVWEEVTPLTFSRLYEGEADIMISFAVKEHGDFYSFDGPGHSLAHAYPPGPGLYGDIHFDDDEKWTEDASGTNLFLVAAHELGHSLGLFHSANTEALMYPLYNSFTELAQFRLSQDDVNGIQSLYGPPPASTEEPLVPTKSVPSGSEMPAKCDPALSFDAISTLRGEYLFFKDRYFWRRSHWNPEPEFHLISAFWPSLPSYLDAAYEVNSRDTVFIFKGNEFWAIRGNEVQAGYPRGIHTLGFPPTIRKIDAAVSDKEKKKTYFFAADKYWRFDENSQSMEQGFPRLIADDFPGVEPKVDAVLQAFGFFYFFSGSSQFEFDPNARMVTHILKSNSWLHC
Assay: Inhibition constant (Ki) on MMP-10h
Format: biochemical
Settings: read-out: Ki MMP-10h; human MMP-10
pKi: −log10 of the molar value.
metric: pKi

Batch of 3 compounds: report pKi for each.
1. NC(=O)[C@H](CCC(=O)O)NC(=O)CCc1cc(-c2ccccc2)no1 [Compound 15]
2. NC(=O)[C@H](CC(=O)O)NC(=O)[C@H](CCC(=O)O)NC(=O)CCc1ccc(-c2cc(-c3ccccc3)cs2)cc1 [Compound 101]
3. NC(=O)[C@H](CCC(=O)O)NC(=O)[C@H](CC(=O)O)NC(=O)CCc1ccc(-c2cc(-c3ccccc3)cs2)cc1 [Compound 100]

1: < 5.30; 2: 6.24; 3: < 6.00

* * *

Molecular target: MMP-9h (Homo sapiens (Human))
Assay: Inhibition constant (Ki) on MMP-9h
Type: biochemical
Settings: read-out: Ki MMP-9h; human MMP-9
Would you mind telling me the reported Ki of each entry?

Before answering, review these 6 worked examples.
NC(=O)[C@H](CCC(=O)O)NC(=O)[C@H](CCC(=O)O)NC(=O)CCc1ccc(-c2cccs2)cc1 : > 1 µM
CC(C)C[C@H](NC(=O)[C@H](CCC(=O)O)NC(=O)CCc1ccc(-c2cccs2)cc1)C(N)=O : > 1 µM
NC(=O)[C@H](Cc1ccc(O)cc1)NC(=O)[C@H](CCC(=O)O)NC(=O)CCc1ccc(-c2ccc(-c3ccccc3)cc2)cc1 : > 1 µM
NC(=O)[C@H](CCC(=O)O)NC(=O)[C@H](CC(=O)O)NC(=O)CCc1cc(-c2ccc(-c3cccc(Cl)c3)cc2)no1 : > 1 µM
O=C(O)CC[C@H](NC(=O)CCc1ccc(-c2cc(-c3ccccc3)cs2)cc1)C(=O)Nc1cccc(CC(=O)O)c1 : 0.396 µM
NC(=O)CC[C@H](NC(=O)[C@H](CCC(=O)O)NC(=O)CCc1ccc(-c2cccs2)cc1)C(N)=O : > 1 µM

Batch of 4 molecules: report Ki for each.
1. NC(=O)[C@H](CCC(=O)O)NC(=O)[C@H](CC(=O)O)NC(=O)CCc1ccc(-c2ccc(-c3ccccc3)cc2)cc1
2. NC(=O)[C@H](CO)NC(=O)[C@H](CCC(=O)O)NC(=O)CCc1ccc(-c2cccs2)cc1
3. CC(C)C[C@H](NC(=O)[C@H](CCC(=O)O)NC(=O)CCc1ccc(-c2ccc(-c3ccccc3)cc2)cc1)C(N)=O
4. NC(=O)[C@H](CCC(=O)O)NC(=O)[C@H](CCC(=O)O)NC(=O)[C@@H](CC(=O)O)Cc1ccc(-c2cc(-c3ccccc3)cs2)cc1

["> 1 µM", "> 1 µM", "> 1 µM", "> 1 µM"]

Any idea what Ki was measured for O=C(O)CC[C@H](NC(=O)CCc1ccc(-c2ccc(-c3ccccc3)cc2)cc1)C(=O)Nc1cccc(CC(=O)O)c1 ? 0.645 µM

* * *

Would you mind telling me the reported Ki of each entry?
Target: MMP-9h (Homo sapiens (Human), UniProt P14780)
Sequence (P14780 94-707): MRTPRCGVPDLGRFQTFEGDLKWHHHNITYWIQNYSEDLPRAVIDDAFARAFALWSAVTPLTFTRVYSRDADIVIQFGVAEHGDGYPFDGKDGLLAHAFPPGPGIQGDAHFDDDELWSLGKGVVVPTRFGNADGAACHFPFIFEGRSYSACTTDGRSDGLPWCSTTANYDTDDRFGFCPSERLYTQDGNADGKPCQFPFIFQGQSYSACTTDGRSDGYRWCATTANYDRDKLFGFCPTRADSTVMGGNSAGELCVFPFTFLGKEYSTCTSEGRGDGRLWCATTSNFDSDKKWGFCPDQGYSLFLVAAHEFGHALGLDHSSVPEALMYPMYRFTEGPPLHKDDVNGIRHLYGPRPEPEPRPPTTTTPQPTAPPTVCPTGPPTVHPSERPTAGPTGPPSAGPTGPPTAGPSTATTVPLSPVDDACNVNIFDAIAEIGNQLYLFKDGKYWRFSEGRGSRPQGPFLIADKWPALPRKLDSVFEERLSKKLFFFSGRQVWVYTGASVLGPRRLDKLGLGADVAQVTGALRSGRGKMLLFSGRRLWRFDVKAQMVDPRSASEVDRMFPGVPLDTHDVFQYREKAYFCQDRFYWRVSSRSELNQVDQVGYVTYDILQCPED
Experiment: Inhibition constant (Ki) on MMP-9h
Assay type: biochemical
Settings: read-out: Ki MMP-9h; human MMP-9

O=C(O)CC[C@H](NC(=O)CCc1ccc(-c2ccccc2)cc1)C(=O)N1CCC[C@@H](CC(=O)O)C1 [Compound 51] : > 1 µM
NC(=O)[C@H](CCC(=O)O)NC(=O)[C@H](CO)NC(=O)CCc1ccc(-c2ccc(-c3ccccc3)cc2)cc1 [Compound 78] : > 5 µM
NCCCC[C@H](NC(=O)[C@H](CCC(=O)O)NC(=O)CCc1ccc(-c2ccccc2)cc1)C(N)=O [Compound 44] : > 5 µM

Any idea what Ki was measured for NC(=O)[C@H](CCC(=O)O)NC(=O)CCc1cc(-c2ccc(-c3cccc(Cl)c3)cc2)no1 [Compound 4] ? 0.12 µM

* * *

Would you mind telling me the reported pKi of each entry?
Molecular target: UniProtKB P22894
Assay: Inhibition constant (Ki) on MMP-8h
Type: biochemical
Conditions: read-out: Ki MMP-8h; human MMP-8
Give bare numbers, as −log10 of the molar value.

Before answering, review these 3 worked examples.
NC(=O)CC[C@H](NC(=O)[C@H](CCC(=O)O)NC(=O)CCc1ccc(-c2cccs2)cc1)C(N)=O [Compound 81] : 7.32
NC(=O)[C@H](CCC(=O)O)NC(=O)[C@H](CCC(=O)O)NC(=O)CCc1ccc(-c2ccc(-c3ccccc3)s2)cc1 [Compound 92] : 6.42
O=C(O)CC[C@H](NC(=O)CCc1ccc(-c2cccs2)cc1)C(=O)N1CCC[C@@H](CC(=O)O)C1 [Compound 89] : 7.03

Batch of 2 compounds: report pKi for each.
1. NC(=O)[C@H](CCC(=O)O)NC(=O)[C@H](CCC(=O)O)NC(=O)CCc1ccc(I)cc1 [Compound 31]
2. C[C@H](NC(=O)[C@H](CCC(=O)O)NC(=O)CCc1ccc(-c2ccc(-c3ccccc3)cc2)cc1)C(N)=O [Compound 66]

[6.08, 6.27]

* * *

Biological target: MMP-8h (Homo sapiens (Human), UniProt P22894)
Sequence (P22894 101-467): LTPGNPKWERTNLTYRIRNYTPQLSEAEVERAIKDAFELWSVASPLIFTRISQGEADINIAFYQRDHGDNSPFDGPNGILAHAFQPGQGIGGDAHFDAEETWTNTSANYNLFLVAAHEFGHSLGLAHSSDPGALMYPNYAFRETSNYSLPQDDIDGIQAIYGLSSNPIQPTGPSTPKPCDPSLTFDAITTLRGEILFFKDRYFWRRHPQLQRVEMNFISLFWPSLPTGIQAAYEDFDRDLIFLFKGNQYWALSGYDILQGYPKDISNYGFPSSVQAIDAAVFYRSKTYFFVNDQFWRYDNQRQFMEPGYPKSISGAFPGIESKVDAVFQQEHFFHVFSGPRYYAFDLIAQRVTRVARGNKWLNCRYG
Experiment: Inhibition constant (Ki) on MMP-8h
Assay type: biochemical
Settings: read-out: Ki MMP-8h; human MMP-8
Response field label takes 1 (yes) when Ki is strictly below 100 nM and 0 (no) in all other cases.

These solved cases illustrate the format of a correct answer.
O=C(O)CC[C@H](NC(=O)CCc1ccc(-c2cc(-c3ccccc3)cs2)cc1)C(=O)Nc1cccc(CC(=O)O)c1 [Compound 106] : 0 (no)
O=C(O)CC[C@H](NC(=O)CCc1ccc(-c2ccccc2)cc1)C(=O)N1CCC[C@@H](CC(=O)O)C1 [Compound 51] : 0 (no)
Cc1nc(-c2ccc(CCC(=O)N[C@@H](CCC(=O)O)C(=O)N[C@@H](CCC(=O)O)C(N)=O)cc2)no1 [Compound 34] : 0 (no)
NC(=O)[C@H](CCC(=O)O)NC(=O)[C@H](CCC(=O)O)NC(=O)[C@H](Cc1cc(-c2ccc(-c3cccc(Cl)c3)cc2)no1)CP(=O)(O)c1ccc(Br)cc1 [RXP470, reference compound] : 1 (yes)
NC(=O)[C@H](Cc1c[nH]cn1)NC(=O)[C@H](CCC(=O)O)NC(=O)CCc1ccc(-c2cccs2)cc1 [Compound 86] : 1 (yes)

Record CC(C)C[C@H](NC(=O)CCc1ccc(-c2ccc(-c3ccccc3)cc2)cc1)C(=O)N[C@@H](CCC(=O)O)C(N)=O [Compound 79] : is its Ki strictly below 100 nM? 0 (no)

Then NC(=O)[C@H](CCC(=O)O)NC(=O)[C@H](CCC(=O)O)NC(=O)CCc1ccc(COc2ccccc2)cc1 [Compound 29] ? 0 (no)

Then NC(=O)[C@H](CCC(=O)O)NC(=O)[C@H](CC(=O)O)NC(=O)CCc1cc(-c2ccc(-c3ccccc3)cc2)no1 [Compound 17] ? 0 (no)

Then NC(=O)[C@H](CCC(=O)O)NC(=O)[C@H](CCC(=O)O)NC(=O)CCc1cc(-c2ccccc2)no1 [Compound 14] ? 0 (no)

* * *

Molecular target: MMP-14h (Homo sapiens (Human), UniProt P50281)
Assay: Inhibition constant (Ki) on MMP-14h
Format: biochemical
Conditions: human MMP-14
metric: Ki

Before answering, review these 2 worked examples.
NC(=O)[C@H](CCC(=O)O)NC(=O)[C@H](CCC(=O)O)NC(=O)CCc1ccc(-c2cccc([N+](=O)[O-])c2)cc1 : > 5000 nM
NC(=O)[C@H](CCCC(=O)O)NC(=O)[C@H](CCCC(=O)O)NC(=O)CCc1cc(-c2ccc(-c3cccc(Cl)c3)cc2)no1 : 553 nM

Consider the additional molecule presented here.
Any idea what Ki was measured for NC(=O)[C@H](CCC(=O)O)NC(=O)[C@H](CCC(=O)O)NC(=O)CCc1cc(-c2ccc(-c3ccccc3)cc2)no1 ? > 1000 nM

* * *

Target: MMP-14h (Homo sapiens (Human))
Assay: Inhibition constant (Ki) on MMP-14h
Assay type: biochemical
Settings: read-out: Ki MMP-14h; human MMP-14
metric: Ki

NC(=O)[C@H](CCC(=O)O)NC(=O)[C@@H](CCC(=O)O)NC(=O)CCc1cc(-c2ccc(-c3cccc(Cl)c3)cc2)no1 : > 10 µM
NC(=O)[C@H](CCC(=O)O)NC(=O)[C@H](CCC(=O)O)NC(=O)CCc1ccc(-c2cccc(C(=O)O)c2)cc1 : > 10 µM

Consider the additional compound presented here.
Any idea what Ki was measured for NC(=O)[C@H](CCC(=O)O)NC(=O)[C@H](CCC(=O)O)NC(=O)CCc1cc(-c2ccc(-c3cccc(Cl)c3)cc2)no1 ? > 1 µM

* * *

Target: UniProt P14780
Assay: Inhibition constant (Ki) on MMP-9h
Assay type: biochemical
Conditions: read-out: Ki MMP-9h; human MMP-9
metric: Ki

Before answering, review these 10 worked examples.
C[C@H](NC(=O)[C@H](CCC(=O)O)NC(=O)CCc1cc(-c2ccc(-c3ccccc3)cc2)no1)C(N)=O [Compound 23] : > 1000 nM
NC(=O)CC[C@H](NC(=O)[C@H](CCC(N)=O)NC(=O)CCc1cc(-c2ccc(-c3ccccc3)cc2)no1)C(N)=O [Compound 22] : > 1000 nM
O=C(O)CC[C@H](NC(=O)CCc1ccc(-c2ccc(-c3ccccc3)cc2)cc1)C(=O)N1CCC[C@@H](CC(=O)O)C1 [Compound 70] : > 5000 nM
NC(=O)[C@H](CC(=O)O)NC(=O)[C@H](CCC(=O)O)NC(=O)CCc1ccc(-c2cc(-c3ccccc3)cs2)cc1 [Compound 101] : > 5000 nM
NC(=O)[C@H](CCC(=O)O)NC(=O)[C@H](CCC(=O)O)NC(=O)CCc1ccc(-c2cccc(N)c2)cc1 [Compound 53] : > 1000 nM
NC(=O)[C@H](CCC(=O)O)NC(=O)[C@H](Cc1cnc[nH]1)NC(=O)CCc1ccc(-c2cc(-c3ccccc3)cs2)cc1 [Compound 104] : > 5000 nM
NC(=O)CC[C@H](NC(=O)[C@H](CCC(=O)O)NC(=O)CCc1ccc(-c2cc(-c3ccccc3)cs2)cc1)C(N)=O [Compound 99] : > 5000 nM
NC(=O)[C@H](CCC(=O)O)NC(=O)[C@H](CCC(=O)O)NC(=O)CCc1csc(-c2ccccc2)n1 [Compound 27] : > 5000 nM
NC(=O)[C@H](CCC(=O)O)NC(=O)[C@H](CCC(=O)O)NC(=O)CCc1ccc(Oc2ccccc2)cc1 [Compound 28] : > 10000 nM
NC(=O)[C@H](CCC(=O)O)NC(=O)[C@H](CCC(=O)O)NC(=O)[C@H](Cc1cc(-c2ccc(-c3cccc(Cl)c3)cc2)no1)CP(=O)(O)c1ccc(Br)cc1 [RXP470, reference compound] : 850 nM

Batch of 2 molecules: report Ki for each.
1. Cc1nc(-c2ccc(CCC(=O)N[C@@H](CCC(=O)O)C(=O)N[C@@H](CCC(=O)O)C(N)=O)cc2)no1 [Compound 34]
2. NC(=O)[C@H](CCC(=O)O)NC(=O)[C@H](CCC(=O)O)NC(=O)CCc1cn(-c2ccccc2)nn1 [Compound 24]

1. > 5000 nM
2. > 1000 nM

Batch of 5 molecules: report Ki for each.
1. NC(=O)[C@H](CO)NC(=O)[C@H](CCC(=O)O)NC(=O)CCc1ccc(-c2ccc(-c3ccccc3)cc2)cc1 [Compound 68]
2. NC(=O)[C@H](CCC(=O)O)NC(=O)[C@H](CCC(=O)O)NC(=O)CCc1ccc(-c2cccc(C(=O)O)c2)cc1 [Compound 56]
3. NC(=O)CC[C@H](NC(=O)[C@H](CCC(N)=O)NC(=O)CCc1ccc(-c2ccccc2)cc1)C(N)=O [Compound 43]
4. NC(=O)[C@@H](CCC(=O)O)NC(=O)[C@@H](CCC(=O)O)NC(=O)CCc1cc(-c2ccc(-c3cccc(Cl)c3)cc2)no1 [Compound 7]
5. NC(=O)[C@H](CCC(=O)O)NC(=O)CCc1cc(-c2ccccc2)no1 [Compound 15]

1: > 1000 nM; 2: > 1000 nM; 3: > 1000 nM; 4: > 5000 nM; 5: > 1000 nM

Batch of 8 molecules: report Ki for each.
1. Cc1csc(-c2ccc(CCC(=O)N[C@@H](CCC(=O)O)C(=O)N[C@@H](CCC(=O)O)C(N)=O)cc2)c1 [Compound 94]
2. NC(=O)[C@H](CCCC(=O)O)NC(=O)[C@H](CCC(=O)O)NC(=O)CCc1cc(-c2ccc(-c3cccc(Cl)c3)cc2)no1 [Compound 12]
3. NC(=O)[C@H](CCC(=O)O)NC(=O)[C@H](CC(=O)O)NC(=O)CCc1cc(-c2ccc(-c3ccccc3)cc2)no1 [Compound 17]
4. C[C@H](NC(=O)[C@H](CCC(=O)O)NC(=O)CCc1ccc(-c2cccs2)cc1)C(N)=O [Compound 85]
5. NC(=O)[C@H](CCC(=O)O)NC(=O)[C@H](CCC(=O)O)NC(=O)CCc1ccc(-c2ncccn2)cc1 [Compound 32]
6. NC(=O)[C@H](CO)NC(=O)[C@H](CCC(=O)O)NC(=O)CCc1ccc(-c2ccccc2)cc1 [Compound 49]
7. Cc1ccsc1-c1ccc(CCC(=O)N[C@@H](CCC(=O)O)C(=O)N[C@@H](CCC(=O)O)C(N)=O)cc1 [Compound 107]
8. C[C@H](NC(=O)CCc1ccc(-c2ccc(-c3ccccc3)cc2)cc1)C(=O)N[C@@H](CCC(=O)O)C(N)=O [Compound 76]

1: > 1000 nM; 2: > 1000 nM; 3: > 1000 nM; 4: > 5000 nM; 5: > 1000 nM; 6: > 1000 nM; 7: > 10000 nM; 8: > 5000 nM

Batch of 2 molecules: report Ki for each.
1. NC(=O)[C@H](CCC(=O)O)NC(=O)[C@H](CCC(=O)O)NC(=O)CCc1ccc(-c2cccc(O)c2)cc1 [Compound 54]
2. NC(=O)[C@H](CCC(=O)O)NC(=O)[C@H](Cc1c[nH]cn1)NC(=O)CCc1ccc(-c2ccc(-c3ccccc3)cc2)cc1 [Compound 77]

1: > 1000 nM; 2: > 50000 nM
